- Tested on: Mus musculus
- measurement.protocol: Anticonvulsant activity in Mus musculus albino (mouse) assessed as increase in onset of pentylenetetrazole-induced seizure at 50 mg/kg, ip administered 30 min followed by pentylenetetrazole induction measured for 30 min (reference value: 184 +/- 32 secs)
- Assay type: functional
- measurement.parameters: route intraperitoneal
metric.name: Time (s)

O=C(CNc1ccc(Br)cc1)N/N=C/c1ccc([N+](=O)[O-])cc1    596
O=C(CNc1ccc(Br)cc1)N/N=C/c1ccccc1O    562
CCOc1ccc(NCC(=O)N/N=C/c2ccccc2O)cc1    903
CCOc1ccc(NCC(=O)N/N=C/c2ccc([N+](=O)[O-])cc2)cc1    643

###

- Tested on: Mus musculus
- measurement.protocol: Anticonvulsant activity in pentylenetetrazole-induced Mus musculus albino (mouse) seizure model assessed as death time at 50 mg/kg, ip administered 30 min followed by pentylenetetrazole induction measured for 30 min (reference value: 416 +/- 58.2 secs)
- Assay type: functional
- measurement.parameters: route intraperitoneal
Listed here: items and their measured Time.
metric.name: Time

CCOc1ccc(NCC(=O)N/N=C/c2ccccc2O)cc1    1055 s
CCOc1ccc(NCC(=O)N/N=C/c2ccc([N+](=O)[O-])cc2)cc1    1528 s
O=C(CNc1ccc(Br)cc1)N/N=C/c1ccc([N+](=O)[O-])cc1    1122 s
O=C(CNc1ccc(Br)cc1)N/N=C/c1ccccc1O    832 s

###

- Tested on: Mus musculus
- measurement.protocol: Anticonvulsant activity in Mus musculus albino (mouse) assessed as increase in onset of pentylenetetrazole-induced seizure at 300 mg/kg, ip administered 30 min followed by pentylenetetrazole induction measured for 30 min (reference value: 184 +/- 32 secs)
- Format: functional
- measurement.parameters: route intraperitoneal
Okay, here is how we bin by Time: band A = under 600 s, band B = from 600 s up to 900 s, band C = 900 s and over

O=C(CNc1ccc(Br)cc1)N/N=C/c1ccc([N+](=O)[O-])cc1    band B
O=C(CNc1ccc(Br)cc1)N/N=C/c1ccccc1[N+](=O)[O-]    band C
CCOc1ccc(NCC(=O)N/N=C/c2ccccc2[N+](=O)[O-])cc1    band B
CC(C)=NNC(=O)CNc1ccc(Br)cc1    band C
CCOc1ccc(NCC(=O)NN=C(C)C)cc1    band A
O=C(CNc1ccc(Br)cc1)N/N=C/c1ccccc1Cl    band A
CCOc1ccc(NCC(=O)N/N=C(/C)c2ccccc2)cc1    band A

###

The reader will find reported Time values listed item by item below.
- Tested on: Mus musculus
- measurement.protocol: Anticonvulsant activity in Mus musculus albino (mouse) assessed as decrease in pentylenetetrazole-induced total seizure time at 50 mg/kg, ip administered 30 min followed by pentylenetetrazole induction measured for 30 min (reference value: 9.9 +/- 1.3 secs)
- Format: functional
- measurement.parameters: route intraperitoneal
metric.name: Time

CCOc1ccc(NCC(=O)N/N=C/c2ccccc2O)cc1    5.2 s
O=C(CNc1ccc(Br)cc1)N/N=C/c1ccc([N+](=O)[O-])cc1    3.7 s
O=C(CNc1ccc(Br)cc1)N/N=C/c1ccccc1O    8.6 s
CCOc1ccc(NCC(=O)N/N=C/c2ccc([N+](=O)[O-])cc2)cc1    7.3 s

###

- Test system: Mus musculus
- measurement.protocol: Anticonvulsant activity in pentylenetetrazole-induced Mus musculus albino (mouse) seizure model assessed as death time at 100 mg/kg, ip administered 30 min followed by pentylenetetrazole induction measured for 30 min (reference value: 416 +/- 58.2 secs)
- Format: functional
- measurement.parameters: route intraperitoneal
metric.name: Time (s)

CCOc1ccc(NCC(=O)NN=C(C)C)cc1    623
CCOc1ccc(NCC(=O)N/N=C(/C)c2ccccc2)cc1    310
CCOc1ccc(NCC(=O)N/N=C/c2ccccc2[N+](=O)[O-])cc1    1011
CC(C)=NNC(=O)CNc1ccc(Br)cc1    945
O=C(CNc1ccc(Br)cc1)N/N=C/c1ccccc1Cl    885
CCOc1ccc(NCC(=O)N/N=C/c2ccccc2O)cc1    659
O=C(CNc1ccc(Br)cc1)N/N=C/c1ccccc1O    1800
CCOc1ccc(NCC(=O)N/N=C/c2ccc([N+](=O)[O-])cc2)cc1    1137
O=C(CNc1ccc(Br)cc1)N/N=C/c1ccccc1[N+](=O)[O-]    897
C/C(=N\NC(=O)CNc1ccc(Br)cc1)c1ccccc1    1577
O=C(CNc1ccc(Br)cc1)N/N=C/c1ccc([N+](=O)[O-])cc1    1400
CCOc1ccc(NCC(=O)N/N=C/c2ccccc2Cl)cc1    1189

###

- Test system: Mus musculus
- measurement.protocol: Anticonvulsant activity in pentylenetetrazole-induced Mus musculus albino (mouse) seizure model assessed as survival at 100 mg/kg, ip administered 30 min followed by pentylenetetrazole induction measured for 30 min relative to control
- Type: functional
- measurement.parameters: 0.5 h, route intraperitoneal
The following molecules are shown together with reported survival at 100 mg/kg values.
metric.name: survival at 100 mg/kg (%)

O=C(CNc1ccc(Br)cc1)N/N=C/c1ccccc1O    100
CCOc1ccc(NCC(=O)N/N=C/c2ccc([N+](=O)[O-])cc2)cc1    50
CCOc1ccc(NCC(=O)N/N=C/c2ccccc2Cl)cc1    43
C/C(=N\NC(=O)CNc1ccc(Br)cc1)c1ccccc1    86
O=C(CNc1ccc(Br)cc1)N/N=C/c1ccccc1[N+](=O)[O-]    38
CCOc1ccc(NCC(=O)N/N=C/c2ccccc2[N+](=O)[O-])cc1    12

###

Items are presented alongside their recorded Activity.
- Test system: Mus musculus
- measurement.protocol: Anticonvulsant activity in Mus musculus albino (mouse) assessed as protection against pentylenetetrazole-induced seizure at 50 mg/kg, ip administered 30 min followed by pentylenetetrazole induction measured for 30 min relative to control
- Type: functional
- measurement.parameters: route intraperitoneal
metric.name: Activity (%)

O=C(CNc1ccc(Br)cc1)N/N=C/c1ccc([N+](=O)[O-])cc1    16
CCOc1ccc(NCC(=O)N/N=C/c2ccc([N+](=O)[O-])cc2)cc1    16
O=C(CNc1ccc(Br)cc1)N/N=C/c1ccccc1O    25
CCOc1ccc(NCC(=O)N/N=C/c2ccccc2O)cc1    22

###

- System: Mus musculus
- measurement.protocol: Anticonvulsant activity in pentylenetetrazole-induced Mus musculus albino (mouse) seizure model assessed as survival at 300 mg/kg, ip administered 30 min followed by pentylenetetrazole induction measured for 30 min relative to control
- Assay type: functional
- measurement.parameters: 0.5 h, route intraperitoneal
Attribute: survival at 300 mg/kg
metric.name: survival at 300 mg/kg (%)

CCOc1ccc(NCC(=O)N/N=C/c2ccc([N+](=O)[O-])cc2)cc1    44
CC(C)=NNC(=O)CNc1ccc(Br)cc1    64
O=C(CNc1ccc(Br)cc1)N/N=C/c1ccccc1O    100
O=C(CNc1ccc(Br)cc1)N/N=C/c1ccccc1[N+](=O)[O-]    33
C/C(=N\NC(=O)CNc1ccc(Br)cc1)c1ccccc1    50
O=C(CNc1ccc(Br)cc1)N/N=C/c1ccc([N+](=O)[O-])cc1    62
CCOc1ccc(NCC(=O)N/N=C/c2ccccc2O)cc1    0
CCOc1ccc(NCC(=O)NN=C(C)C)cc1    0
CCOc1ccc(NCC(=O)N/N=C/c2ccccc2[N+](=O)[O-])cc1    14
CCOc1ccc(NCC(=O)N/N=C/c2ccccc2Cl)cc1    12
O=C(CNc1ccc(Br)cc1)N/N=C/c1ccccc1Cl    29
CCOc1ccc(NCC(=O)N/N=C(/C)c2ccccc2)cc1    0

###

- System: Mus musculus
- measurement.protocol: Anticonvulsant activity in Mus musculus albino (mouse) assessed as protection against pentylenetetrazole-induced seizure at 100 mg/kg, ip administered 30 min followed by pentylenetetrazole induction measured for 30 min relative to control
- Type: functional
- measurement.parameters: route intraperitoneal
metric.name: Activity (%)

CCOc1ccc(NCC(=O)NN=C(C)C)cc1    0
CCOc1ccc(NCC(=O)N/N=C/c2ccccc2[N+](=O)[O-])cc1    0
CCOc1ccc(NCC(=O)N/N=C/c2ccccc2Cl)cc1    14
O=C(CNc1ccc(Br)cc1)N/N=C/c1ccccc1[N+](=O)[O-]    0
CCOc1ccc(NCC(=O)N/N=C(/C)c2ccccc2)cc1    0
C/C(=N\NC(=O)CNc1ccc(Br)cc1)c1ccccc1    14
CCOc1ccc(NCC(=O)N/N=C/c2ccc([N+](=O)[O-])cc2)cc1    16
CCOc1ccc(NCC(=O)N/N=C/c2ccccc2O)cc1    0
O=C(CNc1ccc(Br)cc1)N/N=C/c1ccc([N+](=O)[O-])cc1    0
O=C(CNc1ccc(Br)cc1)N/N=C/c1ccccc1Cl    0
O=C(CNc1ccc(Br)cc1)N/N=C/c1ccccc1O    25
CC(C)=NNC(=O)CNc1ccc(Br)cc1    0
